# TARGET_ENTITY: T1, histidine-tagged human Siglec-7 (NovoProtein) (human, UniProt Q9Y286 19-353)
# T1 construct: Bought protein; also called recombinant human Siglec-7; recombinant Siglec-7; not shown: histidine tag
# ASSAY_NOTES: BLI, antibody captured
Consider the following binders; for each one, report its fold improvement over S7AB-H8.
Unit fold implied. Number only.

May I ask what fold improvement over S7AB-H8 has been recorded for S7AB-H8.7 (antibody, V domains shown) VH: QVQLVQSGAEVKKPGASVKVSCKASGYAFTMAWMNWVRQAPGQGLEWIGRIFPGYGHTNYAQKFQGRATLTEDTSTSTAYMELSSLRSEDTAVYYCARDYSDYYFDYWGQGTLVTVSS VL: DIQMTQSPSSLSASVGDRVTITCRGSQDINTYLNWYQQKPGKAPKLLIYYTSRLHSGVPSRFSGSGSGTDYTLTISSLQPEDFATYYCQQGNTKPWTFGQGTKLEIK ?
1.7

May I ask what fold improvement over S7AB-H8 has been recorded for S7AB-H8.41 (antibody, V domains shown) VH: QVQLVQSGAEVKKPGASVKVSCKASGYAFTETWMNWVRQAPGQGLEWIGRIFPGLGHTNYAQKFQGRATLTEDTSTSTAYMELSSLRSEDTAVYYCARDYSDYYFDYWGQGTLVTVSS VL: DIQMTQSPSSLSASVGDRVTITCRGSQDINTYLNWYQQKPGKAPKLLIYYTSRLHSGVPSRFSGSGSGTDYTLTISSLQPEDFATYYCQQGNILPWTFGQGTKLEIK ?
2

May I ask what fold improvement over S7AB-H8 has been recorded for S7AB-H8.38 (antibody, V domains shown) VH: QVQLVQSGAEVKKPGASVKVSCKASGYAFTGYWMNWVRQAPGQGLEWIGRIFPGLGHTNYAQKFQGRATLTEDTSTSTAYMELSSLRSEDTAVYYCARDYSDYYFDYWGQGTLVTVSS VL: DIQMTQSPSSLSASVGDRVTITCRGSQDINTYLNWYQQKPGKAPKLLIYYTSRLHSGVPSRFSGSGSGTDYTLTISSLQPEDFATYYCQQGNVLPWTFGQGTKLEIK ?
3.2

May I ask what fold improvement over S7AB-H8 has been recorded for S7AB-H8.25 (antibody, V domains shown) VH: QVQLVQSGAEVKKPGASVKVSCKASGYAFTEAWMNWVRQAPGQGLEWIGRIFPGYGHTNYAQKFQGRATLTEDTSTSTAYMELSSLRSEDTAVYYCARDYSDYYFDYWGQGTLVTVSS VL: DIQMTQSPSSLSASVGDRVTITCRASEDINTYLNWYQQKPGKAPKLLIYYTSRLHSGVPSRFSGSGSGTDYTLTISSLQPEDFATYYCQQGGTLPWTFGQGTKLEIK ?
4

May I ask what fold improvement over S7AB-H8 has been recorded for S7AB-H8.5 (antibody, V domains shown) VH: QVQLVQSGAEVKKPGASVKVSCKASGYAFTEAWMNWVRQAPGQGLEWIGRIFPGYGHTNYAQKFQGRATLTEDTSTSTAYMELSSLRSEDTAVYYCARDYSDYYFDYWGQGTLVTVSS VL: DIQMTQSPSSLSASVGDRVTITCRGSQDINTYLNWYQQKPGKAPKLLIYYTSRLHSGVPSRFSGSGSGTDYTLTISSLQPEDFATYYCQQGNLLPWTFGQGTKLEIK ?
3
